Just for reference, PubChem BioAssay AID624354 is where these values come from.

Provide the recorded inhibition (viability loss, TRAIL sensitization) for the entries that follow.
Assay: viability loss with TRAIL in NB7+C8 cells, primary screen, TRAIL sensitizer project, cell-based, ATPlite luminescence (AID 624354)
Details: at 10 µM, active compounds read high
In all, about 360,000 compounds went through this assay and about 3,800 (1.1%) were called active. This is one part of a sample in which actives are shown more often than they occur.
Give bare numbers, in %.

| compound | measured |
| --- | --- |
| CC(=O)Nc1cccc(C(=O)OCN2C(=O)c3ccccc3C2=O)c1 | -5.54 |
| CCOc1ccc2cc(C#N)c(SCC(=O)OC)nc2c1 | 51.7 |
| COc1ccc(CCN2CNc3c(c(=O)n(C)c(=O)n3C)C2)cc1OC | 7.29 |
| CCc1ccc(S(=O)(=O)Nc2ccc(C)c(NS(C)(=O)=O)c2)cc1 | -5.21 |
| CCOC(=O)c1c(NC(=O)CCl)sc(C(=O)N(CC)CC)c1C | 92.5 |

Give one value of inhibition (viability loss, TRAIL sensitization) per listed compound.
1. CCOC(=O)c1c(NC(=O)c2ccc(S(=O)(=O)N(C)CC3CCCO3)cc2)sc2c1CC(C)(C)NC2(C)C (stereo not drawn)
2. N#CCCC(C#N)(c1cccnc1)N1CCOCC1 (stereo not drawn)
3. Cc1ccc(CNC(=O)Cn2cnc3c(NCc4ccccc4)ncnc32)o1

1. 26.5
2. -12.1
3. 20.3

Parameters: items (list). Returns: inhibition (viability loss, TRAIL sensitization) for each item.
1. COc1cc(-c2nc(S(=O)(=O)c3ccc(Cl)cc3)c(N(C)C)o2)cc(OC)c1OC
2. COc1ccc(CCNC(=O)CSc2nc(-c3ccc(OC)c(OC)c3)ccc2C#N)cc1
3. COC(=O)c1sc(NC(=O)COC(=O)C2CCC2)c(C(=O)OC)c1C
4. CC(=O)c1sc(NC(=O)c2ccc(C)cc2)nc1C
5. Cc1ccccc1CS(=O)(=O)CC1(O)CCN(C(=O)c2cccc(C(F)(F)F)c2)CC1
6. O=C(NC1CCCCC1)c1ccc(CNc2c(N3CCOCC3)c(=O)c2=O)cc1
7. CCOC(=O)c1c(NC(=O)COC(=O)c2ccc(S(=O)(=O)C(F)F)cc2)sc(C(=O)N(C)C)c1C

1. -2.14
2. 28
3. -0.357
4. 68.3
5. 8.2
6. -0.739
7. -18.3

Working through the 3 compounds below one at a time, give inhibition (viability loss, TRAIL sensitization) for each.
1. CC(=O)Nc1cccc(C(=O)OCC(=O)NCc2cc(C)c(O)c(C)c2)c1
2. COC(=O)[C@]12CCCCC=C1N(Cc1cccc3ccccc13)C(=O)[C@H](CC(=O)N1CCOCC1)C2
3. COc1cccc(NC(=O)CN(C)CC(=O)c2c(N)n(Cc3ccccc3)c(=O)n(C)c2=O)c1

-2.97
-17.8
-2.67

###

Test: viability loss with TRAIL in NB7+C8 cells, primary screen, TRAIL sensitizer project, cell-based, ATPlite luminescence (AID 624354)
Details: at 10 µM, active compounds read high
The whole screen tested about 360,000 compounds, of which about 3,800 (1.1%) were called active. The entries come from a sample that favours actives as a whole.
attribute.measured: inhibition (viability loss, TRAIL sensitization) (%)
Numbers only, in %.

| compound | measured |
| --- | --- |
| CCOc1ccccc1-n1c(SCC(=O)N2CCCC2)nnc1-c1ccoc1C | 2.53 |
| CCCN1C(=O)C(NC(C)=O)c2cc(OC)ccc21 (stereo not given) | -4.35 |
| COC(C(=O)Nc1ccc(S(=O)(=O)Nc2ccc(C)c(C)c2)cc1)c1ccccc1 (stereo not given) | 5.37 |
| C=CCn1c(C)cc(C(=O)CN2C(=O)c3ccccc3C2=O)c1C | 52 |
| COc1ccc(C(C(=O)NC2CCCCC2)N(C(=O)CCl)c2ccccc2Cl)cc1 (stereo not given) | 94.5 |
| CN1CCC(CN)(N2CCN(c3ccccc3)CC2)CC1 | 6.93 |
| COc1ccc(C2=Nc3ccccc3NC(=O)C2N(C(=O)c2cc3ccccc3[nH]2)c2ccccc2)cc1 (stereo not given) | -7.09 |
| CC1CCCCC1NC(=O)CCS(=O)(=O)c1ccc2c(c1)NC(=O)CO2 (stereo not given) | -18.2 |

Working through the 2 compounds below one at a time, give inhibition (viability loss, TRAIL sensitization) for each.
1. N#Cc1ccc(OCc2nnc(-c3ccc([N+](=O)[O-])cc3)o2)cc1
2. Cc1nn(-c2ccccc2)c(Cl)c1/C=N/NC(=O)c1nn(C)cc1[N+](=O)[O-]

1: -1.32; 2: 54.6

Each of the following entries comes with a recorded value; kindly state inhibition (viability loss, TRAIL sensitization) for each.
1. COC(=O)c1sc(SC)c(S(=O)(=O)C(C)C)c1N/N=C(\C#N)S(=O)(=O)c1ccccn1
2. COc1ccc2nc(Nc3nc(-c4cc5ccccc5oc4=O)cs3)sc2c1
3. CCN(CC)CCNC(=O)C1c2ccccc2C(=O)N(C)C1c1cn(C)c2ccccc12 (stereo not given)

-10.6
69.2
14.1

Your task in this section: give inhibition (viability loss, TRAIL sensitization) for each listed record.
1. Cc1noc(C)c1CSCC(=O)Nc1nc2ccc(Oc3ccccc3)cc2s1
2. C=CCN(CC=C)C(=O)CN1C(=O)c2ccccc2C1=O

1: -12.9; 2: 36.5
